All figures here come from ChEMBL document CHEMBL1148188.

EXPERIMENT: Selectivity index, ratio of ED50 for human KB cells to ED50 for Plasmodium falciparum D6
Assay type: toxicity, cell-based
STUDY_CONDITIONS: read-out: Ratio ED50
PROPERTY_MEASURED: selectivity ratio

Request: // lookup selectivity ratio for C[C@@H]1CC[C@H]2[C@@H](C)C(=O)O[C@@H]3O[C@@]4(C)CC[C@@H]1[C@]32OO4
Response: > 33300

Request: I have this molecule here, OC(c1cc(C(F)(F)F)nc2c(C(F)(F)F)cccc12)C1CCCCN1 (stereo unspecified) , and I need its recorded selectivity ratio.
Response: 480

Request: Give its selectivity ratio value. Item: CO[C@@H]1C[C@H]2N3CC[C@@]2(c2cc4c(cc2C3)OCO4)[C@H]2O[C@@H]12
Response: 4

Request: What does the data say about its selectivity ratio? Entry: O[C@H]1[C@H]2c3cc4c(cc3CN3CCC(=C[C@@H]1O)[C@H]23)OCO4
Response: 1

Request: Using the record for C=C[C@H]1CN2CC[C@H]1C[C@H]2[C@H](O)c1ccnc2ccc(OC)cc12 , report its selectivity ratio.
Response: > 2130

Request: Reported selectivity ratio for CO[C@H]1C=C[C@@]23c4cc5c(cc4CN(C[C@@H]2O)[C@H]3C1)OCO5 : what is it?
Response: 0.4
